Reported Property: melting point

Q: Determine its reported melting point: Cc1cc(S(=O)(=O)NC(=O)c2cn3cc(C(F)(F)F)cc(Cl)c3n2)c(C)cc1C#N [Compound 19]
Result: 244 to 245 °C

Q: Determine its reported melting point: CCc1ccc(Cl)c(S(=O)(=O)NC(=O)c2cn3cc(C(F)(F)F)cc(Cl)c3n2)c1
Result: > 250 °C

Q: Determine its reported melting point: Cc1cc(S(=O)(=O)NC(=O)c2cn3cc(C(F)(F)F)cc(Cl)c3n2)c(C)cc1C#N [Compound 479]
Result: 185 to 186 °C

Q: Determine its reported melting point: CCn1cc(S(=O)(=O)NC(=O)c2cn3cc(C(F)(F)F)cc(Cl)c3n2)c(C)n1
Result: 251 to 252 °C

Q: Determine its reported melting point: Cc1cc(S(=O)(=O)[N-]C(=O)c2cn3cc(C(F)(F)F)cc(Cl)c3n2)c(C)cc1C#N.[Na+]
Result: > 250 °C

Q: Determine its reported melting point: COc1ccc(Cl)c(S(=O)(=O)[N-]C(=O)c2cn3cc(C(F)(F)F)cc(Cl)c3n2)c1.[Na+]
Result: > 250 °C
